Origin of the recorded values: patent US9790252B2

- Tested on: HEK293 cells
- assay: Toxicity to HEK293 cells (MTT)
- Format: cell-based
- experimental.context: HEK293, 100 μM, 12 hours, control = 1

- compound: "NC(=O)c1ccc[n+]([C@@H]2O[C@H](COP(=O)([O-])OP(=O)(O)OC[C@H]3O[C@@H](n4cnc5c(N)ncnc54)[C@H](O)[C@@H]3O)[C@@H](O)C2(F)F)c1 [gem-diF-NAD, 2′-deoxy-2′,2′-difluoro-NAD^+]"
  100 μM relative viability: 0.7905
- compound: "NC(=O)c1ccc[n+]([C@@H]2O[C@H](CO)C(O)C2F)c1 (some centres unmarked) [ara-F-NR]"
  100 μM relative viability: 0.6741
- compound: "NC(=O)c1ccc[n+]([C@@H]2O[C@H](COP(=O)([O-])O)C(O)C2F)c1 (some centres unmarked) [ara-F-NMN]"
  100 μM relative viability: 0.5574
- compound: "NC(=O)c1ccc[n+]([C@@H]2O[C@H](CO)C(O)[C@@H]2F)c1 (some centres unmarked) [ribo-F-NR]"
  100 μM relative viability: 0.008358
- compound: "NC(=O)c1ccc[n+]([C@@H]2O[C@H](CO)[C@@H](O)C2(F)F)c1 [gem-diF-NR]"
  100 μM relative viability: 0.7386

###

Ki, SirT3 (Homo sapiens): measured values

- compound: "NC(=O)c1ccc[n+]([C@@H]2O[C@H](CO)C(O)[C@@H]2Cl)c1 (some centres unmarked)"
  Ki / µM: 82
- compound: "NC(=O)c1ccc[n+]([C@@H]2O[C@H](CO)C(O)C2Cl)c1 (some centres unmarked)"
  Ki / µM: 546

###

- System: HEK293 cells
- assay: Toxicity to HEK293 cells (MTT)
- Type: cell-based
- experimental.context: HEK293, 100 μM, 12 hours, control = 1
- Protocol: 1. HEK293 cells were seeded in 96-well plate at a density of 25,000 cells/well the day before the experiment starts; 2. After the cells reach 50˜60% confluency, media was taken out, and 100 μL of fresh media was added to each well; 3. F-derivatives were plated at 100 and 500 μM (in duplicates) concentrations; 4. […] Absorbance was measured at 570 nm. Assay for Determining Toxicity to HEK293 and Neuro2A Cells • 1. […] Absorbance was measured at 570 nm.
measure: 100 μM relative viability

- compound: "NC(=O)c1ccc[n+]([C@@H]2O[C@H](COP(=O)([O-])O)C(O)C2(F)F)c1 (stereo partly drawn)"
  reported: 0.6858
- compound: "NC(=O)c1ccc[n+]([C@@H]2O[C@H](COP(=O)([O-])O)C(O)C2F)c1 (stereo partly drawn) [ribo-F-NMN]"
  reported: 0.54
- compound: "NC(=O)c1ccc[n+]([C@@H]2O[C@H](COP(=O)([O-])OP(=O)(O)OC[C@H]3O[C@@H](n4cnc5c(N)ncnc54)[C@H](O)[C@@H]3O)[C@@H](O)[C@@H]2F)c1"
  reported: 0.6699

###

- System: Neuro2A cells
- assay: Toxicity to Neuro2A cells (MTT)
- Format: cell-based
- experimental.context: 500 μM, 12 hours, control = 1

- molecule: "NC(=O)c1ccc[n+]([C@@H]2O[C@H](CO)C(O)[C@@H]2F)c1 (stereo partly drawn)"
  system.tested: "Neuro2A cells"
  500 μM relative viability: 0.345
- molecule: "NC(=O)c1ccc[n+]([C@@H]2O[C@H](COP(=O)([O-])O)C(O)C2(F)F)c1 (stereo partly drawn)"
  system.tested: "Neuro2A cells"
  500 μM relative viability: 0.009
- molecule: "NC(=O)c1ccc[n+]([C@@H]2O[C@H](COP(=O)([O-])OP(=O)(O)OC[C@H]3O[C@@H](n4cnc5c(N)ncnc54)[C@H](O)[C@@H]3O)[C@@H](O)[C@@H]2F)c1"
  system.tested: "Neuro2A cells"
  500 μM relative viability: 0.699
